This collection of values is drawn from ChEMBL document CHEMBL4616718.

Study System: MLL1-ASH2L/RbBP5/WDR5/DPY30
Protocol Summary: Inhibition of recombinant human MLL1 complex (MLL1/Ash2L/RbBP5/WDR5/DPY-30) expressed in Escherichia coli Rosetta 2 (DE3) cells using H3 (1 to 21) peptide as substrate incubated for 1 hr in presence of 3[H] SAM by […] assay
pIC50: −log10 of the molar value.
Observable: pIC50

Nc1ncnc2c1ncn2[C@@H]1O[C@H](CN(CC[C@H](N)C(=O)O)Cc2cn(CCc3ccccc3)nn2)[C@@H](O)[C@H]1O: 6.88
Nc1ncnc2c1ncn2[C@@H]1O[C@H](CN(CC[C@H](N)C(=O)O)C2CN(CCCC3CCCC3)C2)[C@@H](O)[C@H]1O: 6.63
Nc1ncnc2c1ncn2[C@@H]1O[C@H](CN(CC[C@H](N)C(=O)O)CC2CN(Cc3ccoc3)C2)[C@@H](O)[C@H]1O: 7.66

[a] Nc1ncnc2c1ncn2[C@@H]1O[C@H](CSCC[C@H](N)C(=O)O)[C@@H](O)[C@H]1O
[b] Nc1ncnc2c1ncn2[C@@H]1O[C@H](CN(CC[C@H](N)C(=O)O)CC2CN(Cc3coc4ccccc34)C2)[C@@H](O)[C@H]1O
[c] Nc1ncnc2c1ncn2[C@@H]1O[C@H](CN(CCCNCCCc2ccccc2)CC[C@H](N)C(=O)O)[C@@H](O)[C@H]1O
[d] Nc1ncnc2c1ncn2[C@@H]1O[C@H](CN(CC[C@H](N)C(=O)O)CC2CN(Cc3ccccc3)C2)[C@@H](O)[C@H]1O
input: # sort list by recorded pIC50, greatest to least Lab note: final answer is the ordered label list.
output: d, b, c, a
(d: 7.33, b: 6.92, c: 6.70, a: 6.14)
